Please respond with reported Inhibition for every item in the list.
- Test system: Klebsiella pneumoniae
- conditionNotes: Concentration 32 ug.mL-1;; ASSAY_TEST Inhibition of Bacterial Growth; detection method Absorption (OD600); MEDIA CAMHB; plate type 384well; NBS; CORNING #3640; time 18 hr
- Description: Antibacterial activity against Klebsiella pneumoniae MDR ATCC 70063 (CO-ADD:GN_003); MIC in CAMBH media using NBS plates, by OD(600)
Potency and affinity values are given separately.
The reply should contain only the number, in %.

Exercise: Would you kindly share the measured Inhibition for `COc1ccc(-c2cc3c4nnc(SCC(=O)Nc5ccc(OC)c(Cl)c5)n4ccn3n2)cc1` ?
Solution: 6.25

Exercise: Would you kindly share the measured Inhibition for `CCOc1ccc(NC(=O)Cn2nc3ccc(-c4ccc(C)c(C)c4)nn3c2=O)cc1` ?
Solution: 4.27

Exercise: Would you kindly share the measured Inhibition for CCOc1ccc(-n2ccn3c(SC(C)C(=O)Nc4ccc(OC)cc4)nnc3c2=O)cc1 (stereo not given) ?
Solution: 5.17

Exercise: Would you kindly share the measured Inhibition for `CCCCn1c(=O)c2sccc2n2c(=O)n(CC(=O)c3ccc(C)cc3C)nc12` ?
Solution: 10.99

Exercise: Would you kindly share the measured Inhibition for `CCOc1ccc(-n2ccn3c(SCC(=O)Nc4ccc(C)cc4Cl)nnc3c2=O)cc1` ?
Solution: 9.51
